Target: T1, human TSH receptor (full length), coated on tubes (human, UniProt P16473 22-764)
T1 construct: TSHR coated tubes as described in WO2004/050708A2; The receptor is full length and held on plastic tubes through a mouse MAb to the TSHR; also called thyroid stimulating hormone receptor
Assay: inhibition of 125I-K1-70 Fab (competitor) binding to TSHR coated tubes; 3 µg/mL in assay buffer
outcome_measure: Inhibition of binding (%)
Respond with the bare value in %.

Challenge: Return reported Inhibition of binding (%). Input binder: K1-70 Fab (Fab, V domains shown) VH: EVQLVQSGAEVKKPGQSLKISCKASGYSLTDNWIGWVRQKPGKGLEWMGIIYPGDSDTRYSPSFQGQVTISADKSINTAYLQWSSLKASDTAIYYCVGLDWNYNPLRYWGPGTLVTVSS VL: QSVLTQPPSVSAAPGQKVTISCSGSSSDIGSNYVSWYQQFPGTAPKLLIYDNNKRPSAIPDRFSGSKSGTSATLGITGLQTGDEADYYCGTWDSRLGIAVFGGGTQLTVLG
Response given: 93.5

These data points were gathered from patent US20110300138A1.
